Cited source: the NIST ThermoML archive (doi:10.1021/je800316b)

Experimental Context: 333.15 K; 20000 kPa; Liquid
Measure Name: mass density (kg/m3)
Answers are plain numbers, in kg/m3.

Check out these entries, answers already filled in.
CCn1cc[n+](C)c1.COS(=O)(=O)[O-] [1-ethyl-3-methylimidazolium methylsulfate] ... 1269.9
CCOS(=O)(=O)[O-].CCn1cc[n+](C)c1 [1-ethyl-3-methylimidazolium ethyl sulfate] ... 1227.2
CCCCCCCCCCn1cc[n+](C)c1.O=S(=O)([N-]S(=O)(=O)C(F)(F)F)C(F)(F)F ... 1261.9

Let's switch to this molecule now.
Data request: Reported mass density, molecule CCn1cc[n+](CC)c1.O=S(=O)([N-]S(=O)(=O)C(F)(F)F)C(F)(F)F [1,3-diethylimidazolium bis[(trifluoromethyl)sulfonyl]imide] : ____
Data returned: 1443.2

====

Experimental Context: 313.15 K; 2500 kPa; Liquid
Numbers after ± are expanded uncertainties.
Exercise: state measured mass density for each of the compounds provided.
Don't forget the unit after the value.

The cases that follow already have their mass density on record.
CCn1cc[n+](CC)c1.O=S(=O)([N-]S(=O)(=O)C(F)(F)F)C(F)(F)F [1,3-diethylimidazolium bis[(trifluoromethyl)sulfonyl]imide] ... 1449.6 ± 3 kg/m3
CCCCCCCCCCn1cc[n+](C)c1.O=S(=O)([N-]S(=O)(=O)C(F)(F)F)C(F)(F)F ... 1267.3 ± 2.5 kg/m3
CCn1cc[n+](C)c1.COS(=O)(=O)[O-] [1-ethyl-3-methylimidazolium methylsulfate] ... 1277.8 ± 2.5 kg/m3

Proceeding to the next compound to report its mass density.
Data request: Using the record for CCOS(=O)(=O)[O-].CCn1cc[n+](C)c1 [1-ethyl-3-methylimidazolium ethyl sulfate] , report its mass density.
Data returned: 1234 ± 2.4 kg/m3

====

Experimental Context: 293.15 K; 10000 kPa; Liquid
Measure Name: mass density (kg/m3)
Answers are plain numbers, in kg/m3.

Check out these entries, answers already filled in.
CCCCCCCCCCn1cc[n+](C)c1.O=S(=O)([N-]S(=O)(=O)C(F)(F)F)C(F)(F)F ... 1291.1
CCn1cc[n+](C)c1.COS(=O)(=O)[O-] [1-ethyl-3-methylimidazolium methylsulfate] ... 1296
CCOS(=O)(=O)[O-].CCn1cc[n+](C)c1 [1-ethyl-3-methylimidazolium ethyl sulfate] ... 1252.3

Data request: Please give the measured mass density for this compound: CCn1cc[n+](CC)c1.O=S(=O)([N-]S(=O)(=O)C(F)(F)F)C(F)(F)F [1,3-diethylimidazolium bis[(trifluoromethyl)sulfonyl]imide]
Data returned: 1476.9

====

Experimental Context: 393.15 K; 5000 kPa; Liquid
Exercise: for every item that follows, state its recorded mass density.
Numbers only, in kg/m3.

CCOS(=O)(=O)[O-].CCn1cc[n+](C)c1 [1-ethyl-3-methylimidazolium ethyl sulfate] ... 1179.3

Please state, for each entry, its recorded mass density.
1. CCCCCCCCCCn1cc[n+](C)c1.O=S(=O)([N-]S(=O)(=O)C(F)(F)F)C(F)(F)F
2. CCn1cc[n+](C)c1.COS(=O)(=O)[O-] [1-ethyl-3-methylimidazolium methylsulfate]
3. CCn1cc[n+](CC)c1.O=S(=O)([N-]S(=O)(=O)C(F)(F)F)C(F)(F)F [1,3-diethylimidazolium bis[(trifluoromethyl)sulfonyl]imide]

Data returned:
1198.3
1220.5
1369.9
